molecular target: T1, HCV ORFs (Gal4-DB fusions) (Hepatitis C virus genotype 1b, UniProt Q9WMX2); assay type: binding, HCV genotype 1b, isolate con1; settings: HCV protein NS3 as bait; human protein as prey;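 note: yeast two-hybrid screens using HCV genotype 1b proteins fused to Gal4-DB as baits against prey cDNA libraries from human spleen and foetal brain, IMAP1 via transformation and IMAP2 via mating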
T1 construct: expressed in transfected cells; host or cells: Saccharomyces cerevisiae MAV203 (IMAP1) / AH109 (IMAP2)
T1 sequence (Q9WMX2 1027-1657): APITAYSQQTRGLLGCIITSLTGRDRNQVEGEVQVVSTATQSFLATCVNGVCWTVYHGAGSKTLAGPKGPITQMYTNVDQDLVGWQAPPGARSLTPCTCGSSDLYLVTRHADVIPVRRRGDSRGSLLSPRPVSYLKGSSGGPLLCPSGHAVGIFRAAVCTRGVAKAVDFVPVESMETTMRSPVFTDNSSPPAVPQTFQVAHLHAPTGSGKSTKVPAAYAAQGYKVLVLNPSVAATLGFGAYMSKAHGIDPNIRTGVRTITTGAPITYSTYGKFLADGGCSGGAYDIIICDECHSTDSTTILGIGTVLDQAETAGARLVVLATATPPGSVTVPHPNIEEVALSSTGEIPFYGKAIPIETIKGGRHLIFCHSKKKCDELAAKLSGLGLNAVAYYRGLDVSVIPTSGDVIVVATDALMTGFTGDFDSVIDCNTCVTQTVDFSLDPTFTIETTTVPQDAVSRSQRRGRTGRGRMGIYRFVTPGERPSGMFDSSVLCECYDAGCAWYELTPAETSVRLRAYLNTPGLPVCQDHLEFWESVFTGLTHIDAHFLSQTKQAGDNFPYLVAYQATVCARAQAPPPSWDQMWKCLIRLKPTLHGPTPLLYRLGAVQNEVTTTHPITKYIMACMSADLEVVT
Entries and their measured IMAP Y2H IMAP1 (number of IST) follow.

• ARFIP2 (protein, UniProt P53365 1-341, looked up) Arfaptin-2: MTDGILGKAATMEIPIHGNGEARQLPEDDGLEQDLQQVMVSGPNLNETSIVSGGYGGSGDGLIPTGSGRHPSHSTTPSGPGDEVARGIAGEKFDIVKKWGINTYKCTKQLLSERFGRGSRTVDLELELQIELLRETKRKYESVLQLGRALTAHLYSLLQTQHALGDAFADLSQKSPELQEEFGYNAETQKLLCKNGETLLGAVNFFVSSINTLVTKTMEDTLMTVKQYEAARLEYDAYRTDLEELSLGPRDAGTRGRLESAQATFQAHRDKYEKLRGDVAIKLKFLEENKIKVMHKQLLLFHNAVSAYFAGNQKQLEQTLQQFNIKLRPPGAEKPSWLEEQ = 1

Reported IMAP Y2H IMAP1 (number of IST) for SIAH1 (protein, UniProt Q8IUQ4 1-282, looked up) E3 ubiquitin-protein ligase …: MSRQTATALPTGTSKCPPSQRVPALTGTTASNNDLASLFECPVCFDYVLPPILQCQSGHLVCSNCRPKLTCCPTCRGPLGSIRNLAMEKVANSVLFPCKYASSGCEITLPHTEKADHEELCEFRPYSCPCPGASCKWQGSLDAVMPHLMHQHKSITTLQGEDIVFLATDINLPGAVDWVMMQSCFGFHFMLVLEKQEKYDGHQQFFAIVQLIGTRKQAENFAYRLELNGHRRRLTWEATPRSIHEGIATAIMNSDCLVFDTSIAQLFAENGNLGINVTISMC was 1
